Molecular target: soybean lipoxygenase (Glycine max, UniProt P08170)
Sequence (P08170 1-839): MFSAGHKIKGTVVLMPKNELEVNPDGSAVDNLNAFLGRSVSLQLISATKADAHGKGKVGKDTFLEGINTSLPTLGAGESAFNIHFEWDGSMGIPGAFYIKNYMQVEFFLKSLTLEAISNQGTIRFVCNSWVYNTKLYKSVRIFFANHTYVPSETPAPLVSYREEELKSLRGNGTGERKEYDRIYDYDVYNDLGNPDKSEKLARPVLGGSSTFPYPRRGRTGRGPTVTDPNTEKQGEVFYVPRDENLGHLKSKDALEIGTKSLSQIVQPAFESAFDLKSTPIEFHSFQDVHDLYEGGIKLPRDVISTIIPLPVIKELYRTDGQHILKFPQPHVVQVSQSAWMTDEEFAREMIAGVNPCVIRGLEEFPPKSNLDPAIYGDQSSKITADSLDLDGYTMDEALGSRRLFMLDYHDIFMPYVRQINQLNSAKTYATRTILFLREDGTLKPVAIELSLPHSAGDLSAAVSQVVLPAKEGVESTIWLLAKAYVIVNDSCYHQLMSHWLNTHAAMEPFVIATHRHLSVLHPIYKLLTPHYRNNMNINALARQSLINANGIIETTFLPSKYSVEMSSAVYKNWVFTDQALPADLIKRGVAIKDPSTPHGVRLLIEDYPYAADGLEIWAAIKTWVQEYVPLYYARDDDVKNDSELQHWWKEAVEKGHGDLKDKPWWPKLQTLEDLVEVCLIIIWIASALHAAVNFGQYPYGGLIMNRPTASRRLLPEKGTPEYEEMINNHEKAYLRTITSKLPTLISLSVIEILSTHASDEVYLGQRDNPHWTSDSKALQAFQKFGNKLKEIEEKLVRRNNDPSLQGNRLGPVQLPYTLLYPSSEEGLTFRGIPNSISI
Assay: biochemical
Type: biochemical
Conditions: soybean LOX, 100 μM
Listing: % LOX Inhb. @ 100 μM of selected compounds
Quantity Name: % LOX Inhb. @ 100 μM (%)

Compound | Measurement
CC(/C=C/C(=O)c1ccc(O)cc1)=C\c1ccccc1 [a8] | 14
O=C(/C=C/C=C/c1ccc([N+](=O)[O-])cc1)c1ccc(O)cc1 [a11] | 36
O=C(/C=C/C=C/c1ccccc1)c1ccc(OCCCOc2ccc(C(=O)/C=C/C=C/c3ccccc3)cc2)cc1 [c7] | 41
CC(/C=C/C(=O)c1ccccc1O)=C\c1ccccc1 [b8] | 25
CN(C)c1ccc(/C=C/C=C/C(=O)c2ccc(OCCCCCOc3ccc(C(=O)/C=C/C=C/c4ccc(N(C)C)cc4)cc3)cc2)cc1 [eiv] | 23
O=C(/C=C/c1ccc(OCc2ccc(Br)cc2)cc1)c1ccccc1O [b1] | 89
CC(=O)c1ccc(OCCCCOc2ccc(C(C)=O)cc2)cc1 [diii] | 41
O=C(/C=C/C=C/c1ccccc1)c1ccccc1O [b7] | 29
CN(C)c1ccc(/C=C/C=C/C(=O)c2ccc(OCCCCCCOc3ccc(C(=O)/C=C/C=C/c4ccc(N(C)C)cc4)cc3)cc2)cc1 [ev] | 7
CC(/C=C/C(=O)c1ccc(OCCCOc2ccc(C(=O)/C=C/C(C)=C/c3ccccc3)cc2)cc1)=C\c1ccccc1 [c8] | 26.5
Cc1ccc(/C=C/C(=O)c2ccc(O)cc2)o1 [a12] | 2
O=C(/C=C/c1cccc(Oc2ccccc2)c1)c1ccccc1O [b2] | 44
CC(=O)c1ccc(OCCCCCCOc2ccc(C(C)=O)cc2)cc1 [dv] | 7
O=C(/C=C/C=C/c1ccccc1)c1ccc(O)cc1 [a7] | 4
O=C(/C=C/c1c[nH]c2ccccc12)c1ccc(OCCCOc2ccc(C(=O)/C=C/c3c[nH]c4ccccc34)cc2)cc1 [c6] | 98
CN(C)c1ccc(/C=C/C=C/C(=O)c2ccc(OCCCCOc3ccc(C(=O)/C=C/C=C/c4ccc(N(C)C)cc4)cc3)cc2)cc1 [eiii] | 27
CC(=O)c1ccc(OCCCCCCCOc2ccc(C(C)=O)cc2)cc1 [dvi] | 17
O=C(/C=C/c1cccc2ccccc12)c1ccccc1O [b4] | 82
O=C(/C=C/c1ccco1)c1ccc(O)cc1 [a10] | 23
